# tested.on: HLA-A*02:03
# assay.explanation: IEDB peptide-MHC binding, purified MHC/competitive/radioactivity; filed as Kd, often an IC50 or EC50 that approximates it; bounds were set here for any values at or beyond the usual limits of such assays
# assay.context: source organism: Mammarenavirus juninense
quantity.name: pKd
API: returns pKd as number; meaning -log10 of concentration in mol/L.

[
  {
    "seq": "TSLGLLYTV",
    "quantity.name": "pKd",
    "observed.measurement": 6.39
  }
]

Please turn your attention to the following entry.
Enter pKd (test system HLA-A*02:03) for "LNIALVAVSL"
4.91

----------
# tested.on: HLA-A*11:01
# assay.explanation: IEDB peptide-MHC binding, purified MHC/competitive/radioactivity; filed as Kd, often an IC50 or EC50 that approximates it; bounds were set here for any values at or beyond the usual limits of such assays
# assay.context: source organism: Triticum aestivum
quantity.name: pKd
FYI, pKd means -log10 of a concentration in mol per litre.

Could you please provide reported pKd for "HAIILHQQQK" ? Thanks!
5.95

----------
# tested.on: HLA-A*01:01
# assay.explanation: IEDB peptide-MHC binding, purified MHC/competitive/fluorescence; filed as Kd, often an IC50 or EC50 that approximates it; bounds were set here for any values at or beyond the usual limits of such assays
# assay.context: source organism: Salmonella enterica subsp. enterica serovar Paratyphi B str. SPB7
quantity.name: Kd

Give Kd for this entry on HLA-A*01:01: "FSDLLSMAW"
1.4 nM

----------
# tested.on: HLA-A*02:03
# assay.explanation: IEDB peptide-MHC binding, purified MHC/competitive/fluorescence; filed as Kd, often an IC50 or EC50 that approximates it; bounds were set here for any values at or beyond the usual limits of such assays
# assay.context: source organism: Mycobacterium tuberculosis variant bovis BCG str. Pasteur 1173P2
quantity.name: Kd

Provide Kd value for the following sequence: "RVEESRARL"
≥ 20 µM

----------
# tested.on: HLA-A*02:01
# assay.explanation: IEDB peptide-MHC binding, purified MHC/direct/fluorescence; filed as Kd, often an IC50 or EC50 that approximates it; bounds were set here for any values at or beyond the usual limits of such assays
# assay.context: source organism: Cryptosporidium parvum
quantity.name: pKd
// field semantics: pKd = negative decimal log of concentration (mol/L)

Output pKd of "STKNILVTV"
6.38

----------
# tested.on: HLA-A*29:02
# assay.explanation: IEDB peptide-MHC binding, purified MHC/competitive/radioactivity; filed as Kd, often an IC50 or EC50 that approximates it; bounds were set here for any values at or beyond the usual limits of such assays
# assay.context: source organism: Mammarenavirus caliense
quantity.name: Kd

Give the observed Kd of "PYENLLYKI" for HLA-A*29:02.
≥ 52.4 µM

----------
# tested.on: HLA-A*23:01
# assay.explanation: IEDB peptide-MHC binding, purified MHC/competitive/radioactivity; filed as Kd, often an IC50 or EC50 that approximates it; bounds were set here for any values at or beyond the usual limits of such assays
# assay.context: source organism: Dengue virus 1 Brazil/97-11/1997
quantity.name: pKd
# reply with the number alone; pKd is -log10 of concentration in mol/L

Provide measured pKd value, entry: "AMVLSIVSLF"
7.82

----------
# tested.on: HLA-A*02:16
# assay.explanation: IEDB peptide-MHC binding, purified MHC/direct/fluorescence; filed as Kd, often an IC50 or EC50 that approximates it; bounds were set here for any values at or beyond the usual limits of such assays
# assay.context: source organism: Limestone Canyon virus
pKd: −log10 of the molar value.
quantity.name: pKd

Please look at "KLKKKSAFY" and tell me its recorded pKd on HLA-A*02:16.
≤ 4.70
